Assign remaining at 0.5 h, 50 µM to each entry below.
- protocol_text: Metabolic stability in mouse liver microsomes at 50 uM measured after 30 mins by LC-MS/MS analysis
- Format: ADME, Microsome
- run_conditions: read-out: Stability
State the answer as a number, implicitly in %.

*Q* Which measured remaining at 0.5 h, 50 µM value corresponds to CCc1ccc(-n2c(-c3ccc(Cl)cc3)cc(CN3CC[Si](C)(C)CC3)c2C)cc1 ?
*A* 75.5

*Q* Would you mind doing Cc1ccc(-c2cc(CN3CC[Si](C)(C)CC3)c(C)n2-c2ccc(F)cc2)cc1 as well?
*A* 45.1

*Q* How about this compound: Cc1c(CN2CC[Si](C)(C)CC2)cc(-c2ccc(Cl)cc2)n1-c1ccc(Cl)cc1
*A* 86.3

*Q* And then Cc1c(CN2CCN(C)CC2)cc(-c2ccc(Cl)cc2)n1-c1ccc(Cl)cc1 , what is it?
*A* 62.4

---

- Tested on: Mycobacterium tuberculosis
- protocol_text: Antitubercular activity against Mycobacterium tuberculosis H37Rv assessed as inhibition of bacterial growth incubated for 6 days by Alamar Blue based assay
- Type: functional
- run_conditions: 144 h, time 6 day
Response field label takes 1 (yes) when MIC is strictly below 2 µM and 0 (no) in all other cases.

*Q* Decide: MIC of NNC(=O)c1ccncc1 [ISONIAZID] strictly below 2 µM?
*A* 0 (no)

*Q* What about this compound? COc1ccc(-c2c(CN3CC[Si](C)(C)CC3)cc(C)n2-c2ccc(F)cc2)cc1
*A* 0 (no)

*Q* Request: Cc1c(CN2CCN(C)CC2)cc(-c2ccc(Cl)cc2)n1-c1ccc(Cl)cc1
*A* 1 (yes)

*Q* Again, but for Cc1ccc(-c2cc(CN3CC[Si](C)(C)CC3)c(C)n2-c2ccc(F)cc2)cc1
*A* 1 (yes)

*Q* Request: Cc1c(CN2CC[Si](C)(C)CC2)cc(-c2ccc(Cl)cc2)n1-c1ccccc1
*A* 1 (yes)

*Q* Check COc1ccc(-c2cc(CN3CC[Si](C)(C)CC3)c(C)n2-c2ccc(F)cc2)cc1 too.
*A* 1 (yes)

*Q* Can you check CCc1ccc(-n2c(-c3ccc(OC)cc3)cc(CN3CC[Si](C)(C)CC3)c2C)cc1 next?
*A* 1 (yes)

*Q* And what about the compound Cc1c(CN2CC[Si](C)(C)CC2)cc(-c2ccc(Cl)cc2)n1-c1ccc(Cl)cc1 ?
*A* 1 (yes)

*Q* And CSc1ccc(-c2c(CN3CC[Si](C)(C)CC3)cc(C)n2-c2ccc(F)cc2)cc1 ?
*A* 0 (no)

*Q* Try this compound next: CCc1ccc(-c2cc(CN3CC[Si](C)(C)CC3)c(C)n2-c2ccc(OC)cc2)cc1
*A* 1 (yes)

*Q* Do the same for CCc1ccc(-n2c(-c3ccc(Cl)cc3)cc(CN3CC[Si](C)(C)CC3)c2C)cc1 please
*A* 1 (yes)

*Q* Also check CCc1ccc(-n2c(C)cc(CN3CC[Si](C)(C)CC3)c2-c2ccc(OC)cc2)cc1
*A* 0 (no)

*Q* Then this compound: CSc1ccc(-c2cc(CN3CC[Si](C)(C)CC3)c(C)n2-c2ccc(F)cc2)cc1
*A* 1 (yes)

---

Task for the reader: assign each of the following molecules its reported solubility at 5000 µM.
- protocol_text: Solubility of the compound at 5 mM at pH 4.5 by HPLC analysis
- Assay type: physicochemical
- run_conditions: buffer
Give the value, in units of µM, as a plain number.

*Q* Could you share which solubility at 5000 µM value was measured for CCc1ccc(-n2c(-c3ccc(Cl)cc3)cc(CN3CC[Si](C)(C)CC3)c2C)cc1 ?
*A* 32.6

*Q* What about this molecule? Cc1ccc(-c2cc(CN3CC[Si](C)(C)CC3)c(C)n2-c2ccc(F)cc2)cc1
*A* 42.6

*Q* Do the same for Cc1c(CN2CCN(C)CC2)cc(-c2ccc(Cl)cc2)n1-c1ccc(Cl)cc1 please
*A* 36.7

*Q* // query: Cc1c(CN2CC[Si](C)(C)CC2)cc(-c2ccc(Cl)cc2)n1-c1ccc(Cl)cc1
*A* 36.7
